# experimental-protocol: Pharmacokinetic test in mice (Experimental Example 5)
# Format: in vivo
# assay-setup: male, ICR, mouse, plasma, oral administration of 10 mg/kg, read-out: half-life T1/2 (converted)
observation-type: half-life

QUERY: Would you kindly share the measured half-life for O[C@@H]1[C@H](O)CS[C@H]1n1cnc2c(NCc3cccc(Cl)c3)nc(Cl)nc21 [Example 2] ?
RESULT: ~3.61 h

----------
Each item that follows carries a reported Ki.
# assay-target: A1 adenosine receptor (Homo sapiens)
# Construct: expressed in transfected cells; host or cells: CHO cells (ATCC No. CCL-61)
# Sequence (P30542 whole entry): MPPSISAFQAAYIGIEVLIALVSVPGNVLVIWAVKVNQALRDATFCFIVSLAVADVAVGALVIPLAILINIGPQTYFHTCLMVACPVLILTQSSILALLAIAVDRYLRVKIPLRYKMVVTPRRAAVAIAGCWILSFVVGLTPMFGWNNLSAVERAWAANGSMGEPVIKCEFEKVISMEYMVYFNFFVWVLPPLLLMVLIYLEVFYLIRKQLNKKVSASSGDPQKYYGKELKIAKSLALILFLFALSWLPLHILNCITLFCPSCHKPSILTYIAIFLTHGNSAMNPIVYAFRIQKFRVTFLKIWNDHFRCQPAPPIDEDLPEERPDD
# experimental-protocol: Radioligand binding affinity, A1 adenosine receptor ([3H]CCPA, CHO cells)
# assay-setup: nM ± SEM; read-out: Ki(nM) hA1
Lab book: enter the figure in nM, no units written.

QUERY: Which Ki is reported with A1 adenosine receptor (Homo sapiens) for this entry: O[C@@H]1[C@H](O)CS[C@H]1n1cnc2c(NCc3cccc(F)c3)ncnc21 [Example 11] ?
RESULT: 1430

QUERY: Return Ki measured with A1 adenosine receptor (Homo sapiens) given this molecule: O[C@@H]1[C@H](O)CS[C@H]1n1cnc2c(NCc3cccc(Cl)c3)ncnc21 [Example 12]
RESULT: 860

QUERY: Param readout= Ki; system= A1 adenosine receptor (Homo sapiens); entry= O[C@@H]1[C@H](O)CS[C@H]1n1cnc2c(NCc3cccc(Br)c3)ncnc21 [Example 13] ; returns value.
RESULT: 790
